Experiment: folding stability dG unfold (combined trypsin and chymotrypsin); higher = more stable
Here, each record is paired with measured folding stability dG unfold data.
Write the number in kJ/mol without appending the unit.

Item Sequence	Observed Value
SAGGSAGGSVKITTEPDPNGYYRVTVTIRLNDKPIPVDMPFPPGKTPDQVKEKARDIAKELLKSAGGSAGGS [r12_69_TrROS]	1.9
SAGGPLTLTIPLPDGTTITVTLTRNPDTPSYTATADITFPDGSVVRIHATINSDGSITIHSVEVFPASAGGS [r16_213_TrMRF]	21.7
SAGGMPLVELEIVLPKEELEKLEEALRKLGYKVVKIEVVEYDPENDLVRVRIVLEKPMTLEELKKALKSAGG [r13_725_TrROS_Hall]	19.4

[Q] Consider the sequence SAGMKITLPKGVKSIKVEEVNGKKVIYIEVDGKIFVYDLKTGKLYIYDKKTGEKKEITIKKGDTITLKSAGG [r19_138_TrROS_Hall] and give its measured folding stability dG unfold.
[A] 6.48

[Q] Check SAGGSAGGSAGGSSSLPLSTGTIPLEELEAQGGPIVEVTVLLFSGSSNRTIVMDLPPELVSAGGSAGGSAGG [r7_116_JUSTAS] too.
[A] -2.49

[Q] What about SAGGMTIEELLKKNPELKELVKKGYVIEITYPDGKKETIKISEEDLKKILDDIKKKTNKPVEIKILPSAGGS [r16_655_TrROS_Hall] ?
[A] 6.43

[Q] Here is the next sequence: SAGGGMGRIPLYGEERVEEIAAEPDVVSVEEDPETGRTYVYFERPDGYYSFTRDNETGEITEKTPLPSAGGS [r8_251_JUSTAS]
[A] -0.993

[Q] Please give the result for SAGGKPPGLSEIPLPDNKTEKVPVNSDIVLKRPDGTELKYKLPPEPVTTEKNKYTIKLPNGEITIPINSAGG [r13_643_JUSTAS] too.
[A] -0.415

[Q] Lookup SAGGSAGGSAGGSSIRIWIFFPGYFFRITIKPDPGNPNMIKIDITEIIPPDQMDDEDLISAGGSAGGSAGGS [r4_316_TrROS]
[A] 18.3

[Q] Input SAGGSAGGSAGGPNHYVMATETIEFEFEIRTRNEDGKPQEIKIKFTLTVIRMFPLPPGDPSAGGSAGGSAGG [r7_926_TrROS]
[A] 19.8

[Q] Entry SAGDFLKNLPPGIKRWRPVASDPDGHFVFVFKYKTPDRPRYMVIQFPPNGRIQDIHIFPPDEADKAVNKSAG [r5_73_TrROS] please
[A] 6.38

* * *

Experiment: folding stability dG unfold from chymotrypsin proteolysis; higher = more stable
Lab note: compare folding stability dG unfold against 2 kcal/mol. Equal or greater, write 1. Smaller, write 0.

Before answering, review these 2 worked examples.
Item Sequence	Group Label
SAGGSAGGSAGRRIVFQFPLGMPIDEIADELADNGYEVEINWEPDPNGWMTFVIEITPPDSAGGSAGGSAGG [r11_1050_TrROS]	1
SAGGSAGGSAGGSDSSVITFDIPVSEYPAKIKLSPETKTMTVVSTSPEGTVKVAIERPGSAGGSAGGSAGGS [r10_352_JUSTAS]	0

[Q] Determine whether measured folding stability dG unfold meets or exceeds 2 kcal/mol for SMTLTLEDGKLTLTVTETRTTVERDAADPGKWTTRTETRTVTLTLPLEDLEALKKLLEALPPGARVELVPSA [r9_476_TrROS_Hall]
[A] 1

[Q] And then SAGGSAGGSFRIPKGDPNMKIRIIFQWPNGQPMPMEYTVTPDGTFKINIPGMPPNRIESIEIWSAGGSAGGS [r12_477_TrROS] , what is it?
[A] 0

[Q] Please give the result for SAGGSAGGSDPSATISFSFPLPDGSTININITITDEGSGPRIEIDITVTDANNNTAPAKFTIDSAGGSAGGS [r12_33_TrMRF] too.
[A] 0

[Q] Queued: SAGGSAGGSAGGSLELTFLLEDGTLAKVRIELNEDGELSISVELFELPAPEPVEVRFYPESAGGSAGGSAGG [r7_79_TrROS_Hall]
[A] 1

[Q] Also need SAGGMPVVKVTLRVELPETGETVDVTLYVDPSVPEEYLERLVRRVAEEVARLLRLPPPPVPPRPDELSAGGS [r16_191_TrMRF] , thanks.
[A] 1

[Q] Next sequence: SAGGSAGGSAGGPTLELEITLPDGFKLRVTFDPEKGLRVELVEPVPAPPPKVEYRSLEDLSAGGSAGGSAGG [r11_188_TrROS_Hall]
[A] 0

[Q] And what about the sequence SAGGSAGGSSPITIPIPLSELSEETLKKIAEENPEGETPIKIIKPDGTPVTIVVKPGGEIIGASAGGSAGGS [r12_1054_JUSTAS] ?
[A] 0

[Q] Another sequence: SAGGSAGGSAGGSGMTLPIPLSELTTEEIRELTKPDEDLVIKTEEDEPVVIPYGEIKPESAGGSAGGSAGGS [r4_382_JUSTAS]
[A] 0
